target: MMP-8 (Homo sapiens, UniProt P22894)
Sequence (P22894 101-467): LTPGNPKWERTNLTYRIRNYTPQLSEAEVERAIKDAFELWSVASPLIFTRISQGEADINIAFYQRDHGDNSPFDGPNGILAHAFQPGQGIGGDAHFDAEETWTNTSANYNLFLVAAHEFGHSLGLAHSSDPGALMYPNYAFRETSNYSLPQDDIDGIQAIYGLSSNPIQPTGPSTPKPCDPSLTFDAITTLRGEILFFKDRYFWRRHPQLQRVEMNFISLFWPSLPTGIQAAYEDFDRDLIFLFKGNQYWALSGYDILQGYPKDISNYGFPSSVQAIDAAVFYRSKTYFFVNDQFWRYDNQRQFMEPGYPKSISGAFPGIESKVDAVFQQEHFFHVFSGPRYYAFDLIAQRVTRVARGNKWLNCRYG
readout: IC50 (nM)

>>> result_number("O=C(O)[C@@H]1[C@@H](Cn2nnc3ccc(C(F)(F)F)cc3c2=O)CC[C@H]1C(=O)c1ccc(OCc2ccc(F)cc2)cc1 (single isomer, unassigned) [Example 13]")
0.88

(A) Cc1ccc2nnn(C[C@H]3CC[C@@H](C(=O)c4ccc(OCc5cccc(Cl)c5)cc4)[C@@H]3C(=O)O)c(=O)c2c1 (single isomer, unassigned) [Example 104]
(B) O=C(O)[C@H]1[C@H](Cn2nnc3ccc(C(F)(F)F)cc3c2=O)CC[C@@H]1C(=O)c1ccc(OCc2ccc(F)cc2)cc1 (racemic) [Example 12]
Task: Between A and B , which one has the lower reported IC50 value? Respond using the label that marks the chosen record.
Output: B

###

target: MMP-8 (Homo sapiens, UniProt P22894); construct: purchased R&D Systems 908-MP; assay: In vitro MMP-8 inhibition test; format: biochemical
pIC50: −log10 of the molar value.
readout: pIC50

Example entries and their recorded answers appear below.
>>> result_number("Cc1cccc(COc2ccc(C(=O)[C@H]3CC[C@@H](Cn4nnc5ccc(C(F)(F)F)cc5c4=O)[C@@H]3C(=O)O)cc2)c1 (racemic) [Example 15]")
7.59
>>> result_number("O=C(O)[C@@H]1[C@@H](Cn2nnc3ccc(C(F)(F)F)cc3c2=O)CC[C@H]1C(=O)c1ccc(OCc2cccc(Cl)c2)cc1 (single isomer, unassigned) [Example 23]")
7.25
>>> result_number("Cc1ccc2nnn(C[C@H]3CC[C@@H](C(=O)c4ccc(OCC5CCCCC5)cc4)[C@@H]3C(=O)O)c(=O)c2c1 (single isomer, unassigned) [Example 117]")
8.40
>>> result_number("CCCCOc1ccc(C(=O)[C@@H]2CC[C@H](Cn3nnc4ccc(C(F)(F)F)cc4c3=O)[C@H]2C(=O)O)cc1 (single isomer, unassigned) [Example 67]")
8.80

(1) O=C(O)[C@@H]1[C@@H](Cn2nnc3ccc(C(F)(F)F)cc3c2=O)CC[C@H]1C(=O)c1ccc(OCCC2CCCCC2)cc1 (single isomer, unassigned) [Example 52]
(2) O=C(O)[C@H]1[C@H](Cn2nnc3ccc(C(F)(F)F)cc3c2=O)CC[C@@H]1C(=O)c1ccc(OCCCc2ccccc2)cc1 (racemic) [Example 39]
Task: Lab notebook, comparison: 1 versus 2 , higher pIC50 goes to which? Please indicate the selected item by its label.
Output: 1

###

Target protein (sequence): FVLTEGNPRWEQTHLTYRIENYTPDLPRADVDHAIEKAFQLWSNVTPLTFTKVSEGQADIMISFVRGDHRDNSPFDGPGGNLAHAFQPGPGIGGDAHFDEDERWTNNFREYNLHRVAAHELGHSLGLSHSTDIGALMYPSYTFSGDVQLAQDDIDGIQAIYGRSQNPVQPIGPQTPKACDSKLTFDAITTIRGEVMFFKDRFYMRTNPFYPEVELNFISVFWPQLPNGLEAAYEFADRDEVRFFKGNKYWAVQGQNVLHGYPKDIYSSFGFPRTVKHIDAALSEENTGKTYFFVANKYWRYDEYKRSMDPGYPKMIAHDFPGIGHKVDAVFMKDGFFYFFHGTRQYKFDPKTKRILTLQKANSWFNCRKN
pIC50: −log10 of the molar value.
readout: pIC50

>>> result_number("Cc1ccc2nnn(C[C@@H]3CC[C@H](C(=O)c4ccc(OCc5cccc(Cl)c5)cc4)[C@H]3C(=O)O)c(=O)c2c1 (racemic)")
5.01

(1) Cc1cccc(COc2ccc(C(=O)[C@H]3CC[C@@H](Cn4nnc5ccc(C(F)(F)F)cc5c4=O)[C@@H]3C(=O)O)cc2)c1 (racemic)
(2) Cc1ccc2nnn(C[C@H]3CC[C@@H](C(=O)c4ccc(OCc5cccc(Cl)c5)cc4)[C@@H]3C(=O)O)c(=O)c2c1 (single isomer, unassigned)
Task: Identify the entry with the smaller pIC50: 1 or 2 . Your choice should be expressed through its label.
Output: 1
